Assayed system: Lethal factor (Bacillus anthracis) (UniProt P15917)
Sequence (P15917 whole entry, looked up): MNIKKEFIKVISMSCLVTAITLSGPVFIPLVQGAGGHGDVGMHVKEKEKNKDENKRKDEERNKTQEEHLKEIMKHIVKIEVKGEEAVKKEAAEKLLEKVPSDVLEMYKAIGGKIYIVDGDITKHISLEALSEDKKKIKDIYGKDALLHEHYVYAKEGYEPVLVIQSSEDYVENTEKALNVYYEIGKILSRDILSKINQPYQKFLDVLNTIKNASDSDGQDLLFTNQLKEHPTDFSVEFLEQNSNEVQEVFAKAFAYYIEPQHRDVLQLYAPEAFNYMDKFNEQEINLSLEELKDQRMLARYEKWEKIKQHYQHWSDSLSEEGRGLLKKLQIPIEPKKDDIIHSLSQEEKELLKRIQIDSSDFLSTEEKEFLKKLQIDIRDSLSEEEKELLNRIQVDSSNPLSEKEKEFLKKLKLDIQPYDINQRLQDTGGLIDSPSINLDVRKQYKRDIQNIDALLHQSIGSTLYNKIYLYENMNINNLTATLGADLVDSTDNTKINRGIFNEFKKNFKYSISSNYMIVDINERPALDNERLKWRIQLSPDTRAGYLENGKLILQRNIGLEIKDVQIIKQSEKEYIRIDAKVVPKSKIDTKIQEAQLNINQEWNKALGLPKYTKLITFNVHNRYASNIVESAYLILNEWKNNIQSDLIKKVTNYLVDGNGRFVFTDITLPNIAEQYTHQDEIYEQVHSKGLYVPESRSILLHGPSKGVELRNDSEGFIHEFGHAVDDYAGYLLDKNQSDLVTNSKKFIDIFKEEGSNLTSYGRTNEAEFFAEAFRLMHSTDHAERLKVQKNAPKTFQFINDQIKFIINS
Assay procedure: Lethal factor protease inhibitors, Bacillus anthracis, multiplex microsphere cleavage assay, validation set (AID 588461)
Run parameters: flow cytometry, at 10 µM, stronger effect = higher value
Endpoint: inhibition (%)

[[record]]
compound = "Cc1oc2c(O)c(O)ccc2c(=O)c1-c1ccccc1"
endpoint = "inhibition"
value = 2

[[record]]
compound = "NC(N)=N/N=C/c1ccc(OS(=O)(=O)c2ccccc2)cc1"
endpoint = "inhibition"
value = -1.4

[[record]]
compound = "NC(=O)c1cnccn1"
endpoint = "inhibition"
value = 5.7

[[record]]
compound = "C[C@@H]1O[C@@H](O[C@H]2C[C@@H](O)[C@]3(CO)[C@H]4[C@H](O)C[C@]5(C)[C@@H](C6COC(=O)C6)CC[C@]5(O)[C@@H]4CC[C@]3(O)C2)[C@H](O)[C@H](O)[C@H]1O (stereo not given in full)"
endpoint = "inhibition"
value = 3.5

[[record]]
compound = "O=C1NCC2=C1C(c1ccccc1)Nc1ccccc1N2 (stereo not given)"
endpoint = "inhibition"
value = -4.9


----------
Assay procedure: inhibitors of CD8+ T cell-vesicle binding, pilot screen, LFA-1/ICAM-1 modulator project, MLPCN validation set, flow cytometry (AID 2523)
Run parameters: 2C mouse CD8+ T cells, at 7 µM, stronger effect = lower value; measured here: CD8+/vesicle+ event percentage
Endpoint: double positive events (%)

[[record]]
compound = "C[N+](C)(C)Cc1ccccc1"
endpoint = "double positive events"
value = 64.9

[[record]]
compound = "CCN(CC)C(=O)N[C@H]1C[C@@H]2c3cccc4[nH]cc(c34)C[C@H]2N(C)C1"
endpoint = "double positive events"
value = 62.5

[[record]]
compound = "CN1C(=O)CN=C(c2ccc(Cl)cc2)c2cc(Cl)ccc21"
endpoint = "double positive events"
value = 62.8

[[record]]
compound = "O=c1[nH]c(=S)n(-c2ccccc2)c(O)c1/C=N/N1CCCCC1c1cccnc1 (stereo not given)"
endpoint = "double positive events"
value = 64

[[record]]
compound = "CN1CCN(C(=O)OC2c3nccnc3C(=O)N2c2ccc(Cl)cn2)CC1 (stereo not given)"
endpoint = "double positive events"
value = 58.9

[[record]]
compound = "O=C1CN=C(c2ccccc2F)c2cc(Cl)ccc2N1"
endpoint = "double positive events"
value = 67.2

[[record]]
compound = "OC1CCCCC1N1CCC(c2ccccc2)CC1 (stereo not given)"
endpoint = "double positive events"
value = 62.4

[[record]]
compound = "NCCc1c[nH]c2ccc(F)cc12"
endpoint = "double positive events"
value = 59.2

[[record]]
compound = "O=c1cccc2n1C[C@H]1C[C@@H]2CN2CCCC[C@@H]12"
endpoint = "double positive events"
value = 61.7

[[record]]
compound = "COc1ccc2c(c1)CC1(CN2C)C(=O)NC(=O)N(CCc2ccccc2)C1=O (stereo not given)"
endpoint = "double positive events"
value = 65.8

[[record]]
compound = "O=C1NCCN2CCCC12 (stereo not given)"
endpoint = "double positive events"
value = 58.7

[[record]]
compound = "CCCC(=O)OCC[N+](C)(C)C"
endpoint = "double positive events"
value = 63.6

[[record]]
compound = "NCC(O)c1ccc(O)cc1 (stereo not given)"
endpoint = "double positive events"
value = 66.5

[[record]]
compound = "Cc1cc(Cl)ccc1OC(C)C(=O)O (stereo not given)"
endpoint = "double positive events"
value = 58.2

[[record]]
compound = "c1cnc2c(c1)ccc1ncccc12"
endpoint = "double positive events"
value = 64.8

[[record]]
compound = "CC/C(=C\\C=C\\[C@@H]1C=C[C@@H]2CCC[C@H]2[C@@H]1C(=O)c1ccc[nH]1)[C@@H]1O[C@@H]([C@@H](C)C(=O)O)CC[C@@H]1C"
endpoint = "double positive events"
value = 60.2

[[record]]
compound = "C[C@H]1CCCC(=O)CCCCCc2cc(O)cc(O)c2C(=O)O1"
endpoint = "double positive events"
value = 60.2

[[record]]
compound = "Cc1ccc(/C=C2/C(=O)NC(=O)N(C)C2=O)cc1"
endpoint = "double positive events"
value = 53.7

[[record]]
compound = "C#C[C@]1(O)CC[C@H]2[C@@H]3CCC4=CC(=O)CC[C@]4(C)[C@H]3CC[C@@]21C"
endpoint = "double positive events"
value = 64.1

[[record]]
compound = "C[C@@]1(CO)[C@H](O)CC[C@@]2(C)[C@H]1CC[C@H]1C[C@@H]3C[C@@]12CC[C@]3(O)CO"
endpoint = "double positive events"
value = 62.9

